assay_remarks: toxicity in transgenic mouse hippocampal organotypic slice culture by visual inspection
Assay type: cell-based, mice transgenic for β-APP751
condition_parameters: 25 μM to 400 μM, not toxic until this concentration, read-out: concentration at which toxicity became apparent by visual inspection
Where a SMILES comes first, the peptide text is derived from it. The star is where a group is joined. Cbz = O=C(OCc1ccccc1)*
observable: MCC (µM)
Kindly provide the numeric value in µM only, without the unit symbol.

Which MCC value is on record for CC(C)[C@H](NC(=O)OCc1ccccc1)C(=O)N[C@H](C=O)Cc1ccccc1 [MDL 28170] (Cbz-Val-Phe-aldehyde) ?
400

----------
Tested on: β-amyloid 1-40
assay_remarks: β-amyloid 1-40 secretion by transgenic mouse hippocampal organotypic slice culture (sandwich ELISA)
Assay type: cell-based
condition_parameters: 72 h; 25 μM to 400 μM, 3-day conditioning period, FIG. 4; read-out: IC50 for β-amyloid production by transgenic mouse hippocampal organotypic slice culture
Procedure: Preparation of cultures. Ten day old mouse pups transgenic for the 751 amino acid isoform of human β-amyloid precursor protein (β-APP),programmed for neural expression by the neuron specific enolase promoter were used as tissue source for hippocampal organotypic slice cultures. […] Detailed description of FIG. 4. […] Data points shown were calculated by first taking the mean of duplicate ELISA values for each well, and then calculating the mean of the values for the duplicate treatment wells. […]
Where a SMILES comes first, the peptide text is derived from it. The star is where a group is joined. Cbz = O=C(OCc1ccccc1)*
observable: pIC50
Note on pIC50: it is the negative log10 of concentration, concentration in mol/L.

I am curious: what pIC50 value has been reported for CC(C)[C@H](NC(=O)OCc1ccccc1)C(=O)N[C@H](C=O)Cc1ccccc1 [MDL 28170] (Cbz-Val-Phe-aldehyde) ?
4.00

----------
assay_remarks: toxicity in transgenic mouse hippocampal organotypic slice culture by LDH assay of serum free conditioned media
Format: cell-based, mice transgenic for β-APP751
condition_parameters: 25 μM to 400 μM, 3 days, then additional 24 hours in serum free media, not toxic until this concentration, read-out: concentration at which toxicity became apparent by LDH assay
Where a SMILES comes first, the peptide text is derived from it. The star is where a group is joined. Cbz = O=C(OCc1ccccc1)*
observable: MCC (µM)
Report the value in µM with no unit label.

Endpoint output: MCC of CC(C)[C@H](NC(=O)OCc1ccccc1)C(=O)N[C@H](C=O)Cc1ccccc1 [MDL 28170] (Cbz-Val-Phe-aldehyde) . Value?
400
